Sourced from ChEMBL document CHEMBL1146534

System: Pythium aphanidermatum
ASSAY NAME: Prevention of Pythium aphanidermatum-mediated damping off of cucumber disease at 500 ppm/20 mL per pot after 14 days at 25 degC under green house by Pot test
Type: functional
Reported Activity values follow for various compounds
Please state the figure in %; there is no need to write the unit.

Below: 5 compounds and their reported Activity.
QUERY SMILES: C=C1C(=O)O[C@H]2[C@@H](OC(C)=O)CCCC[C@@H]12
NUMERIC RESULT: 100
//
QUERY SMILES: C=C1C(=O)O[C@H]2CC[C@H](C)CC[C@@H]12
NUMERIC RESULT: 100
//
QUERY SMILES: C=C1C(=O)O[C@H]2[C@@H](O)CCCC[C@@H]12
NUMERIC RESULT: 100
//
QUERY SMILES: C=C1C(=O)O[C@H]2CC[C@@H](C)CC[C@@H]12
NUMERIC RESULT: 70
//
QUERY SMILES: O=C1C[C@@H]2CCCC[C@H](O)[C@@H]2O1
NUMERIC RESULT: 0

The compound listed as "C=C1C(=O)O[C@H]2CCCCC[C@@H]12" shows Activity equal to 0
